System under test: Ubiquitin-activating enzyme e1, putative (Leishmania donovani (strain BPK282A1))
Sequence (whole entry): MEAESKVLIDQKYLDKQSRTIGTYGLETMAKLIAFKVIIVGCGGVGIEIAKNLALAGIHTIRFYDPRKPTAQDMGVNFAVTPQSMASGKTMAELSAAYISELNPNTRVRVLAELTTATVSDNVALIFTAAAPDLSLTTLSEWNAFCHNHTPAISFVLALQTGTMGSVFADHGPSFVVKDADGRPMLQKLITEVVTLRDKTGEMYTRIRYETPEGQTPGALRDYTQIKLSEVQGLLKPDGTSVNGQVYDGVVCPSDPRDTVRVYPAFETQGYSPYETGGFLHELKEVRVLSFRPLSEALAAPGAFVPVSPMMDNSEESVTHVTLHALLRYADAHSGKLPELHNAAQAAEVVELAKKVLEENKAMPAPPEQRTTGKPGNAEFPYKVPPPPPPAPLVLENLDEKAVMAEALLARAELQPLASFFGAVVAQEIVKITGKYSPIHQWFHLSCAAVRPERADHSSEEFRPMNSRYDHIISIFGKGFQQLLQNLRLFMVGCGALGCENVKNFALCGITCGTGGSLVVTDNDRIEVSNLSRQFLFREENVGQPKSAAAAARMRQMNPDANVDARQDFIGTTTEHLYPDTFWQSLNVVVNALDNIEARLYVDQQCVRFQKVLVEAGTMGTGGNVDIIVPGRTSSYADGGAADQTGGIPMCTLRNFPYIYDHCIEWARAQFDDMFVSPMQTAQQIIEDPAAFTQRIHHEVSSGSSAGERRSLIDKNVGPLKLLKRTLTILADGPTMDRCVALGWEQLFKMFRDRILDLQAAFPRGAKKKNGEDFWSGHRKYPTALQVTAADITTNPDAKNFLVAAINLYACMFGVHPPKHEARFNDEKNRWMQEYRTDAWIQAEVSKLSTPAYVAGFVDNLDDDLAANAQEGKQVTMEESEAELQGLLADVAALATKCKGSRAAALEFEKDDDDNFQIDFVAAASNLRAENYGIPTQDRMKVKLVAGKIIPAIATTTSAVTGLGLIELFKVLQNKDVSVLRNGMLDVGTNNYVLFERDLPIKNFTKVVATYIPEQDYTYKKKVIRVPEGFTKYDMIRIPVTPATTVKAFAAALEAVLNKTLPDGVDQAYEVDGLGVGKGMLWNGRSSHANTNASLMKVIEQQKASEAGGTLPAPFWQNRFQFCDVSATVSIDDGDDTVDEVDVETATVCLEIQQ
Assay remarks: Leishmania donovani Ubiquitin Activating Enzyme (LdE1)
Type: functional
Set-up: scale not given: direction of the effect not stated beside the values
Stated conditions: 30 µM
Potency and affinity values are given separately.
Measurement kind: Percent Effect

Molecule	System under test	Percent Effect
CCCS(=O)(=O)NCc1cccnc1OCC	Ubiquitin-activating enzyme e1, putative (Leishmania donovani (strain BPK282A1))	2.6%
Cc1nc(N2CCCC2)nc2c1CCN(Cc1ccco1)CC2	Ubiquitin-activating enzyme e1, putative (Leishmania donovani (strain BPK282A1))	10.7%
COCC1Cn2nnc(-c3cnn(C)c3)c2CN1Cc1ccco1 (configuration not stated)	Ubiquitin-activating enzyme e1, putative (Leishmania donovani (strain BPK282A1))	2.7%
CCc1n[nH]c(C2CN(C(=O)c3cnns3)CCO2)n1 (configuration not stated)	Ubiquitin-activating enzyme e1, putative (Leishmania donovani (strain BPK282A1))	0%
CC1CCCN(C(=O)c2csc(S(N)(=O)=O)c2)CC1 (configuration not stated)	Ubiquitin-activating enzyme e1, putative (Leishmania donovani (strain BPK282A1))	2.7%

### Prompt I would be grateful if you could share the reported Percent Effect for `Cc1ccc(CN2CC[C@H]3OCC[C@@H](C(=O)NC4CC4)[C@@H]3C2)o1` .
### Response 5.41%

### Prompt I would be grateful if you could share the reported Percent Effect for `Cc1ccc(-c2cc(N)c(=O)n(CC(=O)NCC3CC3)n2)s1` .
### Response 6.76%
